The measured values listed here are drawn from patent US6767991B1.

- tested target: recombinant HCV NS3 protease type 1b (Hepatitis C virus genotype 1b, UniProt P26663)
- Construct: recombinant HCV NS3 protease (amino acid 1027 to 1206) was cloned in the pET11d bacterial expression vector; made in house; host or cells: E. coli BL21(DE3)pLysS
- protocol: Recombinant HCV NS3 protease radiometric assay
- Format: biochemical, HCV genotype 1b
- Excerpt: Cloning, Expression and Purification of the Recombinant HCV NS3 Protease type 1b. Serum from an HCV-infected patient was obtained through an external collaboration (Bernard Willems MD, Hôpital St-Luc. Montréal. Canada and Dr. Donald Murphy, Laboratoire de Santé Publique du Québec, Ste-Anne de Bellevue, Canada). […]
pIC50: −log10 of the molar value. Where no end group is shown, it is not given here.
Entry flag: Satisfied if pIC50 reaches 4; Not satisfied if it does not.

Use the examples below as a reference point.
{"substance": "Ac-DDIVFC [compound 117]", "category label": "Satisfied"}
{"substance": "Ac-DDIIPC [compound 113]", "category label": "Satisfied"}

Is reported pIC50 greater than or equal to 4 here: Ac-DDIVAC [compound 120]
Satisfied

Is reported pIC50 greater than or equal to 4 here: Ac-DDIVLC [compound 116]
Satisfied

Is reported pIC50 greater than or equal to 4 here: Ac-DEIVPC [compound 106]
Satisfied

Is reported pIC50 greater than or equal to 4 here: Ac-DDIVVC [compound 118]
Not satisfied

====

- tested target: HCV NS3 protease type 1b/NS4A cofactor peptide (Hepatitis C virus genotype 1b)
- Construct: recombinant HCV NS3 protease (amino acid 1027 to 1206) was cloned in the pET11d bacterial expression vector; made in house; host or cells: E. coli BL21(DE3)pLysS
- Sequence (P26663 1027-1206, other chains not shown): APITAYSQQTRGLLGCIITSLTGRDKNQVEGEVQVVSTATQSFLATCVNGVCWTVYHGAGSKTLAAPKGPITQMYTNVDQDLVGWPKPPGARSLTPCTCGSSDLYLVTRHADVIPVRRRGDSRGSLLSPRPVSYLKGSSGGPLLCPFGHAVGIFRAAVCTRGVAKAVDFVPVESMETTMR
- protocol: Recombinant HCV NS3 protease/NS4A cofactor peptide radiometric assay
- Type: biochemical, HCV genotype 1b
- condition: Table 2, unmarked values: NS3 protease/NS4A cofactor peptide radiometric assay; read-out: IC50
Where a SMILES comes first, the peptide text is derived from it. [ ]: non-standard residue; d: D form. The star is where a group is joined. Hyp = O=C(O)[C@@H]1C[C@@H](O)CN1; X5 = CC(C)(C)c1ccc(C*)cc1; Nva = CCC[C@H](N)C(=O)O; X1 = c1ccc2cc(C*)ccc2c1; Bn = c1ccc(C*)cc1
# IC50 per record follows
Quick reminder: number only, in µM, skip the unit.

Field: example entries. Status: answers known.
{"molecule": "CCC[C@H](NC(=O)[C@@H]1C[C@@H](OCc2ccc(C(C)(C)C)cc2)CN1C(=O)[C@@H](NC(=O)[C@@H](NC(=O)[C@H](CC(=O)O)NC(=O)[C@H](CC(=O)O)NC(C)=O)[C@@H](C)CC)C(C)C)C(=O)O [compound 209] (Ac-DDIV[Hyp](X5)[Nva]-OH)", "IC50 / µM": 2.6}
{"molecule": "CCC[C@H](NC(=O)[C@@H]1C[C@@H](OCc2cccc3ccccc23)CN1C(=O)[C@@H](NC(=S)[C@@H](NC(=O)CNC(C)=O)[C@@H](C)CC)C(C)C)C(=O)O", "IC50 / µM": 4}
{"molecule": "CCC[C@H](NC(=O)[C@@H]1C[C@@H](OCc2ccccc2)CN1C(=O)[C@@H](NC(=O)[C@@H](NC(=O)[C@H](CC(=O)O)NC(=O)[C@H](CC(=O)O)NC(C)=O)[C@@H](C)CC)C(C)C)C(=O)O [compound 201] (Ac-DDIV[Hyp](Bn)[Nva]-OH)", "IC50 / µM": 7.2}

Now look at this entry.
Which IC50 is listed for CCC[C@H](NC(=O)[C@@H]1C[C@@H](OCc2ccc3ccccc3c2)CN1C(=O)[C@@H](NC(=O)[C@@H](NC(=O)[C@H](CC(=O)O)NC(=O)[C@H](CC(=O)O)NC(C)=O)[C@@H](C)CC)C(C)C)C(=O)O [compound 208] (Ac-DDIV[Hyp](X1)[Nva]-OH) ?
0.71

====

- tested target: HCV NS3 protease type 1b/NS4A cofactor peptide (Hepatitis C virus genotype 1b)
- Construct: recombinant HCV NS3 protease (amino acid 1027 to 1206) was cloned in the pET11d bacterial expression vector; made in house; host or cells: E. coli BL21(DE3)pLysS
- protocol: Recombinant HCV NS3 protease/NS4A cofactor peptide radiometric assay
- Assay type: biochemical, HCV genotype 1b
- condition: Table 2, unmarked values: NS3 protease/NS4A cofactor peptide radiometric assay; read-out: IC50
Where a SMILES comes first, the peptide text is derived from it. [ ]: non-standard residue; d: D form. The star is where a group is joined. CH2(1-naphthyl) = c1ccc2c(C*)cccc2c1; Hyp = O=C(O)[C@@H]1C[C@@H](O)CN1; Chg = N[C@H](C(=O)O)C1CCCCC1; Ac3c = NC1(C(=O)O)CC1; Bn = c1ccc(C*)cc1
measured property: IC50 (µM)
Quick reminder: number only, in µM, skip the unit.

Field: example entries. Status: answers known.
{"compound": "CC(=O)N[C@H](C(=O)N[C@H](C(=O)N1C[C@H](OCc2ccccc2)C[C@H]1C(=O)NC1(C(=O)O)CC1)C1CCCCC1)C1CCCCC1 [compound 234] (Ac-[Chg][Chg][Hyp](Bn)[Ac3c]-OH)", "unit label": "µM", "IC50": 41}
{"compound": "CC(=O)N[C@H](C(=O)N[C@H](C(=O)N1C[C@H](OCc2cccc3ccccc23)C[C@H]1C(=O)NC1(C(=O)O)CC1)C1CCCCC1)C1CCCCC1 [compound 231] (Ac-[Chg][Chg][Hyp](CH2(1-naphthyl))[Ac3c]-OH)", "unit label": "µM", "IC50": 2.6}

Now look at this entry.
Which IC50 is listed for CC(=O)N[C@H](C(=O)N[C@H](C(=O)N1C[C@H](OCc2ccccc2)C[C@H]1C(=O)N[C@@H](CS)C(=O)O)C(C)C)C1CCCCC1 [compound 261] (Ac-[Chg]V[Hyp](Bn)C-OH) ?
28

====

# IC50 per record follows
- tested target: human leukocyte elastase (Homo sapiens)
- Sequence (P08246 30-267): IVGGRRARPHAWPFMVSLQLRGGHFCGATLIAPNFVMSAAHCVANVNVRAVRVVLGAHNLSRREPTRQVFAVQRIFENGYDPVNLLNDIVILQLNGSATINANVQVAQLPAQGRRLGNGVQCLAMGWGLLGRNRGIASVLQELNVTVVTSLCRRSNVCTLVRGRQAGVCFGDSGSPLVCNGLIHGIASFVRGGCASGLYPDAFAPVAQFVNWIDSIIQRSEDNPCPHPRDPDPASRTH
- protocol: Specificity assay: human leukocyte elastase
- Format: biochemical
Where a SMILES comes first, the peptide text is derived from it. [ ]: non-standard residue; d: D form. The star is where a group is joined. Acca(2-Et,1R,2R) = CC[C@@H]1C[C@]1(N)C(=O)O; CH2(1-naphthyl) = c1ccc2c(C*)cccc2c1; Hyp = O=C(O)[C@@H]1C[C@@H](O)CN1; Chg = N[C@H](C(=O)O)C1CCCCC1; Nva = CCC[C@H](N)C(=O)O; X1 = c1ccc2cc(C*)ccc2c1; Ac3c = NC1(C(=O)O)CC1

Which IC50 is listed for CC[C@@H]1C[C@]1(NC(=O)[C@@H]1C[C@@H](OCc2cccc3ccccc23)CN1C(=O)[C@@H](NC(=O)[C@@H](NC(=O)[C@@H](CCC(=O)O)NC(=O)[C@H](CC(=O)O)NC(C)=O)C1CCCCC1)C1CCCCC1)C(=O)O [compound 509] (Ac-D[dE][Chg][Chg][Hyp](CH2(1-naphthyl))[Acca(2-Et,1R,2R)]-OH) ?
> 300 µM

Which IC50 is listed for CC(=O)N[C@H](C(=O)N[C@H](C(=O)N1C[C@H](OCc2cccc3ccccc23)C[C@H]1C(=O)NC1(C(=O)O)CC1)C(C)C)C1CCCCC1 [compound 227] (Ac-[Chg]V[Hyp](CH2(1-naphthyl))[Ac3c]-OH) ?
> 600 µM

Which IC50 is listed for CCC[C@H](NC(=O)[C@@H]1C[C@@H](OCc2ccc3ccccc3c2)CN1C(=O)[C@@H](NC(=O)[C@@H](NC(=O)[C@@H](CCC(=O)O)NC(=O)[C@H](CC(=O)O)NC(C)=O)C1CCCCC1)C(C)C)C(=O)O [compound 214] (Ac-D[dE][Chg]V[Hyp](X1)[Nva]-OH) ?
> 300 µM

====

- tested target: human leukocyte elastase (Homo sapiens, UniProt P08246)
- protocol: Specificity assay: human leukocyte elastase
- Type: biochemical
- condition: Table 2; human leukocyte elastase; read-out: HLE
Where a SMILES comes first, the peptide text is derived from it. [ ]: non-standard residue; d: D form. The star is where a group is joined. Hyp = O=C(O)[C@@H]1C[C@@H](O)CN1; Chg = N[C@H](C(=O)O)C1CCCCC1; Nva = CCC[C@H](N)C(=O)O; Ac3c = NC1(C(=O)O)CC1; Bn = c1ccc(C*)cc1
measured property: IC50

Field: example entries. Status: answers known.
{"compound": "CCC[C@H](NC(=O)[C@@H]1C[C@@H](OCc2ccccc2)CN1C(=O)[C@@H](NC(=O)[C@@H](NC(=O)[C@@H](CCC(=O)O)NC(=O)[C@H](CC(=O)O)NC(C)=O)[C@@H](C)CC)C(C)C)C(=O)O [compound 203] (Ac-D[dE]IV[Hyp](Bn)[Nva]-OH; C-terminus assumed)", "IC50": "> 300 µM"}
{"compound": "CC(=O)N[C@@H](CC(=O)O)C(=O)N[C@H](CCC(=O)O)C(=O)N[C@H](C(=O)N[C@H](C(=O)N1C[C@H](OCc2ccccc2)C[C@H]1C(=O)N[C@@H](CS)C(=O)O)C(C)C)C1CCCCC1 [compound 210] (Ac-D[dE][Chg]V[Hyp](Bn)C-OH)", "IC50": "> 300 µM"}
{"compound": "CC[C@H](C)[C@H](NC(=O)[C@@H](CCC(=O)O)NC(=O)[C@H](CC(=O)O)NC(C)=O)C(=O)N[C@H](C(=O)N1C[C@H](OCc2ccccc2)C[C@H]1C(=O)NC1(C(=O)O)CC1)C(C)C [compound 212] (Ac-D[dE]IV[Hyp](Bn)[Ac3c]-OH; C-terminus assumed)", "IC50": "> 300 µM"}

Now look at this entry.
Which IC50 is listed for CC(=O)N[C@H](C(=O)N[C@H](C(=O)N1C[C@H](Oc2ccc(Br)cc2)C[C@H]1C(=O)NC1(C(=O)O)CC1)C(C)C)C1CCCCC1 ?
195 µM
